Consider the following compounds; for each one, report its pIC50.
Molecular target: SARS-CoV-2 M^pro (Severe acute respiratory syndrome coronavirus 2 (2019-nCoV) (SARS-CoV-2))
Assay: biochemical
Conditions: IC50 against SARS-CoV-2 M^pro
pIC50: −log10 of the molar value.

Exercise: Identify measured pIC50 associated with C[C@H](NC(=O)C(c1cccnc1)N(C(=O)c1ccco1)c1ccc(-n2cccc2)cc1)c1ccccc1 (stereo partly drawn)
Solution: > 5.52

Exercise: Identify measured pIC50 associated with C[C@H](NC(=O)[C@@H](c1cccnc1)N(C(=O)C(Br)Br)c1ccc(-c2ccccc2)cc1)c1ccccc1
Solution: 7.10

Exercise: Identify measured pIC50 associated with C[C@H](NC(=O)C(c1cccnc1)N(C(=O)c1ccco1)c1ccc(-c2ccccc2)cc1)c1ccccc1 (stereo partly drawn) [Jun8-76-3]
Solution: > 5.52

Exercise: Identify measured pIC50 associated with C[C@@H](CCc1ccccc1)NC(=O)[C@H](c1cccnc1)N(C(=O)C(Cl)Cl)c1ccc(-c2ccccc2)cc1
Solution: < 4.70

Exercise: Identify measured pIC50 associated with C[C@H](NC(=O)C(c1cccnc1)N(C(=O)c1ccco1)c1ccc(-c2ccccc2)cc1)c1ccccc1 (single isomer, unassigned) [Compound 23S]
Solution: < 5.00

Exercise: Identify measured pIC50 associated with C[C@H](NC(=O)[C@H](c1cccnc1)N(C(=O)C(Br)Br)c1ccc(-c2ccccc2)cc1)c1ccccc1
Solution: 5.61

Exercise: Identify measured pIC50 associated with C[C@H](NC(=O)[C@H](c1cccnc1)N(C(=O)C(Cl)Cl)c1ccc(-c2ccccc2)cc1)c1ccccc1
Solution: < 4.70

Exercise: Identify measured pIC50 associated with C[C@H](NC(=O)[C@H](c1cccnc1)N(C(=O)C(Cl)Cl)c1ccc(-c2ccccc2)cc1)c1ccc(Br)cc1
Solution: < 4.70

Exercise: Identify measured pIC50 associated with O=C(NCC(c1ccccc1)c1ccccc1)C(c1cccnc1)N(C(=O)c1ccco1)c1ccc(-c2ccccc2)cc1 (stereo not drawn)
Solution: > 5.30

Origin of the recorded values: patent US20240083885A1
